# System: LK-2
# protocol: relative viability (nuclei count vs DMSO), 5 days (fraction); higher = more cells survive
# testContext: first compound 0.005 µM
Quick reference: relative viability of the listed items.
Respond using a number only.

- compound: "Nc1ccn([C@@H]2O[C@H](CO)[C@@H](O)[C@@H]2O)c(=O)n1 [Cytarabine] + Cc1cc(Nc2cc(N3CCN(C)CC3)nc(Sc3ccc(NC(=O)C4CC4)cc3)n2)n[nH]1 [Tozasertib] (partner 0.1 µM)"
  targetUnderTest: "LK-2"
  dataValue: 0.213
- compound: "COc1cc2nccc(Oc3ccc(NC(=O)Nc4cc(C)on4)c(Cl)c3)c2cc1OC [Tivozanib] + CS(=O)(=O)CCNCc1ccc(-c2ccc3ncnc(Nc4ccc(OCc5cccc(F)c5)c(Cl)c4)c3c2)o1 [Lapatinib] (partner 2 µM)"
  targetUnderTest: "LK-2"
  dataValue: 0.951
- compound: "COc1cc2nccc(Oc3ccc(NC(=O)Nc4cc(C)on4)c(Cl)c3)c2cc1OC [Tivozanib] + Cc1cc(Nc2cc(N3CCN(C)CC3)nc(Sc3ccc(NC(=O)C4CC4)cc3)n2)n[nH]1 [Tozasertib] (partner 0.1 µM)"
  targetUnderTest: "LK-2"
  dataValue: 0.173
- compound: "COc1cc2nccc(Oc3ccc(NC(=O)Nc4cc(C)on4)c(Cl)c3)c2cc1OC [Tivozanib] + Nc1nc2[nH]cc(CCc3ccc(C(=O)N[C@@H](CCC(=O)O)C(=O)O)cc3)c2c(=O)[nH]1 [Pemetrexed] (partner 0.2 µM)"
  targetUnderTest: "LK-2"
  dataValue: 0.254
- compound: "COc1cc2nccc(Oc3ccc(NC(=O)Nc4cc(C)on4)c(Cl)c3)c2cc1OC [Tivozanib] + Cc1nc(NC(=O)N2CCC[C@H]2C(N)=O)sc1-c1ccnc(C(C)(C)C(F)(F)F)c1 [Alpelisib] (partner 2 µM)"
  targetUnderTest: "LK-2"
  dataValue: 0.93
- compound: "COc1cc2nccc(Oc3ccc(NC(=O)Nc4cc(C)on4)c(Cl)c3)c2cc1OC [Tivozanib] + CS(=O)(=O)N1CCN(Cc2cc3nc(-c4cccc5[nH]ncc45)nc(N4CCOCC4)c3s2)CC1 [Pictilisib] (partner 1 µM)"
  targetUnderTest: "LK-2"
  dataValue: 0.574

Field relative viability (entry Nc1ccn([C@@H]2O[C@H](CO)[C@@H](O)[C@@H]2O)c(=O)n1 [Cytarabine] + COc1cc2c(Oc3ccc(NC(=O)C4(C(=O)Nc5ccc(F)cc5)CC4)cc3F)ccnc2cc1OCCCN1CCOCC1 [Foretinib] (partner 0.25 µM) ) reads 1.33

The compound listed as Nc1ccn([C@@H]2O[C@H](CO)[C@@H](O)[C@@H]2O)c(=O)n1 [Cytarabine] + CCNC(=O)c1noc(-c2cc(C(C)C)c(O)cc2O)c1-c1ccc(CN2CCOCC2)cc1 [Luminespib] (partner 0.01 µM) shows relative viability equal to 0.193

Entry under test: Nc1ccn([C@@H]2O[C@H](CO)[C@@H](O)[C@@H]2O)c(=O)n1 [Cytarabine] + Nc1ncn([C@H]2C[C@H](O)[C@@H](CO)O2)c(=O)n1 [Decitabine] (partner 2 µM) . Its relative viability was 0.234

* * *

# Tested on: EMC-BAC-2
# protocol: relative viability (nuclei count vs DMSO), 5 days (fraction); higher = more cells survive
# testContext: first compound 0.253 µM
Readings of relative viability for the listed compounds

The examples below pair each entry with its known result.
- compound: "O=c1[nH]c2ccccc2n1C1CCN(CCCC(c2ccc(F)cc2)c2ccc(F)cc2)CC1 [Pimozide] + C[C@]1(O)C[C@@H](c2nc(-c3ccc4ccc(-c5ccccc5)nc4c3)c3c(N)nccn32)C1 [Linsitinib] (partner 1 µM)"
  targetUnderTest: "EMC-BAC-2"
  relative viability: 0.787
- compound: "O=c1[nH]c2ccccc2n1C1CCN(CCCC(c2ccc(F)cc2)c2ccc(F)cc2)CC1 [Pimozide] + Cc1cc(Nc2cc(N3CCN(C)CC3)nc(Sc3ccc(NC(=O)C4CC4)cc3)n2)n[nH]1 [Tozasertib] (partner 0.1 µM)"
  targetUnderTest: "EMC-BAC-2"
  relative viability: 0.284
- compound: "Cc1cnc(-c2cnc(NCCNc3ccc(C#N)cn3)nc2-c2ccc(Cl)cc2Cl)[nH]1 + Cc1cc(Nc2cc(N3CCN(C)CC3)nc(Sc3ccc(NC(=O)C4CC4)cc3)n2)n[nH]1 [Tozasertib] (partner 0.1 µM)"
  targetUnderTest: "EMC-BAC-2"
  relative viability: 0.261

Note to self: relative viability recorded for O=c1[nH]c2ccccc2n1C1CCN(CCCC(c2ccc(F)cc2)c2ccc(F)cc2)CC1 [Pimozide] + O=C(CCCCCCC(=O)Nc1ccccc1)NO [Vorinostat] (partner 1 µM) was 0.45

So, O=c1[nH]c2ccccc2n1C1CCN(CCCC(c2ccc(F)cc2)c2ccc(F)cc2)CC1 [Pimozide] + CCNC(=O)c1noc(-c2cc(C(C)C)c(O)cc2O)c1-c1ccc(CN2CCOCC2)cc1 [Luminespib] (partner 0.01 µM) ? Its relative viability was 1.1

Record O=c1[nH]c2ccccc2n1C1CCN(CCCC(c2ccc(F)cc2)c2ccc(F)cc2)CC1 [Pimozide] + Nc1nc2[nH]cc(CCc3ccc(C(=O)N[C@@H](CCC(=O)O)C(=O)O)cc3)c2c(=O)[nH]1 [Pemetrexed] (partner 0.2 µM) , field relative viability: 0.462

Short answer for O=c1[nH]c2ccccc2n1C1CCN(CCCC(c2ccc(F)cc2)c2ccc(F)cc2)CC1 [Pimozide] + Cc1nc(Nc2ncc(C(=O)Nc3c(C)cccc3Cl)s2)cc(N2CCN(CCO)CC2)n1 [Dasatinib] (partner 0.075 µM) : relative viability was 0.274

Record summary for Cc1cnc(-c2cnc(NCCNc3ccc(C#N)cn3)nc2-c2ccc(Cl)cc2Cl)[nH]1 + Nc1ncn([C@H]2C[C@H](O)[C@@H](CO)O2)c(=O)n1 [Decitabine] (partner 2 µM) : reported relative viability = 0.911

* * *

# Tested on: NCI-H460
# protocol: relative viability (nuclei count vs DMSO), 5 days (fraction); higher = more cells survive
# testContext: first compound 0.04 µM
parameterMeasured: relative viability
In your answer, state the number alone without any accompanying words.

Below are worked cases with known answers.
- molecule: "Cc1sc2c(c1C)C(c1ccc(Cl)cc1)=N[C@@H](CC(=O)OC(C)(C)C)c1nnc(C)n1-2 [JQ1] + Nc1ncn([C@H]2C[C@H](O)[C@@H](CO)O2)c(=O)n1 [Decitabine] (partner 2 µM)"
  parameterMeasured: "relative viability"
  dataValue: 0.488
- molecule: "Cc1sc2c(c1C)C(c1ccc(Cl)cc1)=N[C@@H](CC(=O)OC(C)(C)C)c1nnc(C)n1-2 [JQ1] + C[C@]1(O)C[C@@H](c2nc(-c3ccc4ccc(-c5ccccc5)nc4c3)c3c(N)nccn32)C1 [Linsitinib] (partner 1 µM)"
  parameterMeasured: "relative viability"
  dataValue: 0.661
- molecule: "Cc1sc2c(c1C)C(c1ccc(Cl)cc1)=N[C@@H](CC(=O)OC(C)(C)C)c1nnc(C)n1-2 [JQ1] + NC(=O)Nc1cc(-c2cccc(F)c2)sc1C(=O)N[C@H]1CCCNC1 [AZD7762] (partner 0.2 µM)"
  parameterMeasured: "relative viability"
  dataValue: 0.594

Pending molecule:
Given the molecule Cc1sc2c(c1C)C(c1ccc(Cl)cc1)=N[C@@H](CC(=O)OC(C)(C)C)c1nnc(C)n1-2 [JQ1] + CS(=O)(=O)CCNCc1ccc(-c2ccc3ncnc(Nc4ccc(OCc5cccc(F)c5)c(Cl)c4)c3c2)o1 [Lapatinib] (partner 2 µM) and test system NCI-H460, the measured relative viability is 0.887

* * *

Quick reference for relative viability among some molecules
# Test system: NCI-H2228
# protocol: relative viability (nuclei count vs DMSO), 5 days (fraction); higher = more cells survive
# testContext: first compound 0.05 µM

- molecule: "COc1cc2nccc(Oc3ccc(NC(=O)Nc4cc(C)on4)c(Cl)c3)c2cc1OC [Tivozanib] + CC(=O)c1c(C)c2cnc(Nc3ccc(N4CCNCC4)cn3)nc2n(C2CCCC2)c1=O [Palbociclib] (partner 0.5 µM)"
  relative viability: 0.883

Now let's try a different one.
Consider Nc1ccn([C@@H]2O[C@H](CO)[C@@H](O)[C@@H]2O)c(=O)n1 [Cytarabine] + COc1cccc2cc(-c3nc([C@H]4CC[C@H](C(=O)O)CC4)n4ncnc(N)c34)[nH]c12 [OSI-027] (partner 0.5 µM) . Its measured relative viability is 0.244

* * *

# Tested on: SW 1573
# protocol: relative viability (nuclei count vs DMSO), 5 days (fraction); higher = more cells survive
# testContext: first compound 1.265 µM
Threshold-based label: relative viability under 0.2 gives t, relative viability not under 0.2 gives f.

- compound: "Cc1sc2c(c1C)C(c1ccc(Cl)cc1)=N[C@@H](CC(=O)OC(C)(C)C)c1nnc(C)n1-2 [JQ1] + CCNC(=O)c1noc(-c2cc(C(C)C)c(O)cc2O)c1-c1ccc(CN2CCOCC2)cc1 [Luminespib] (partner 0.01 µM)"
  targetUnderTest: "SW 1573"
  className: "t"
- compound: "Cc1sc2c(c1C)C(c1ccc(Cl)cc1)=N[C@@H](CC(=O)OC(C)(C)C)c1nnc(C)n1-2 [JQ1] + C[C@@H](Oc1cc(-c2cnn(C3CCNCC3)c2)cnc1N)c1c(Cl)ccc(F)c1Cl [Crizotinib] (partner 1 µM)"
  targetUnderTest: "SW 1573"
  className: "f"
- compound: "Cc1sc2c(c1C)C(c1ccc(Cl)cc1)=N[C@@H](CC(=O)OC(C)(C)C)c1nnc(C)n1-2 [JQ1] + Cc1nc(NC(=O)N2CCC[C@H]2C(N)=O)sc1-c1ccnc(C(C)(C)C(F)(F)F)c1 [Alpelisib] (partner 2 µM)"
  targetUnderTest: "SW 1573"
  className: "f"
- compound: "Cc1sc2c(c1C)C(c1ccc(Cl)cc1)=N[C@@H](CC(=O)OC(C)(C)C)c1nnc(C)n1-2 [JQ1] + CC(=O)Nc1cccc(-n2c(=O)n(C3CC3)c(=O)c3c(Nc4ccc(I)cc4F)n(C)c(=O)c(C)c32)c1 [Trametinib] (partner 0.02 µM)"
  targetUnderTest: "SW 1573"
  className: "t"

For the next question, use this compound.
[in] Dear colleague, could you confirm whether relative viability of Cc1sc2c(c1C)C(c1ccc(Cl)cc1)=N[C@@H](CC(=O)OC(C)(C)C)c1nnc(C)n1-2 [JQ1] + O=C(CCCCCCC(=O)Nc1ccccc1)NO [Vorinostat] (partner 1 µM) falls below 0.2? Thanks.
[out] f

The origin of these recorded values is the supplement of paper PMC10307832.
